Target: serotonin transporter (Macaca mulatta, UniProt Q9MYX0)
Construct: The serotonin transporter was assayed in caudate-putamen membranes using conditions similar to those for the dopamine transporter; from tissue; host or cells: caudate-putamen membranes of cynomolgus or rhesus monkey brain
Sequence (Q9MYX0 whole entry): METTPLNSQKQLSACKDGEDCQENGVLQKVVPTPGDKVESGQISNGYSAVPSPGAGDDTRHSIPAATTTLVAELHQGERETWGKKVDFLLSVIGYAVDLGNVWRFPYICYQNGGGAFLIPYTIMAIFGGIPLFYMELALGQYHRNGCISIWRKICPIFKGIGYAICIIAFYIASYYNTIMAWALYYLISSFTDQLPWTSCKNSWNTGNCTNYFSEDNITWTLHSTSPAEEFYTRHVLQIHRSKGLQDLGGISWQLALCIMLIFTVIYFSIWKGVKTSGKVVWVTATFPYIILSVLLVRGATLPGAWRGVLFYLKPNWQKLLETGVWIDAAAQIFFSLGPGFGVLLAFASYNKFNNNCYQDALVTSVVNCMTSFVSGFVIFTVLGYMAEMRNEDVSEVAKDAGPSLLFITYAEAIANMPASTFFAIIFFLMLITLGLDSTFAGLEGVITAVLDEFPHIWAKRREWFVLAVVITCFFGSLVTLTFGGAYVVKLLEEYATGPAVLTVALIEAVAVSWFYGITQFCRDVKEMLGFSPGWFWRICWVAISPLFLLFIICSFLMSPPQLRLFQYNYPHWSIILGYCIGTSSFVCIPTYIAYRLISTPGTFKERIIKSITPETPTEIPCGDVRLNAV
Assay: Serotonin transporter assay: inhibition of {3H}citalopram binding in caudate-putamen membranes
Set-up: species or system rhesus or cynomolgus monkey
Conditions: IC50 (nM) SERT, monkey caudate-putamen, mean of 2 or more independent experiments in triplicate
Please provide measured IC50 for the entries that follow.
Answers are plain numbers, in nM.

molecule	readoutNumber
COC(=O)[C@H]1[C@@H](c2ccc(F)cc2)C[C@@H]2CC[C@H]1N2C [Compound 13c, reference compound]	160
COC(=O)C1=C(c2ccc(Cl)c(Cl)c2)C[C@@H]2C[C@@H](O)[C@H]1N2C [(1S)-8a]	5370

Dear colleague, could you please provide IC50 for the molecules listed below?
1. COC(=O)C1=C(c2ccc(Cl)c(Cl)c2)CC2CCC1N2C (stereo not shown) [Compound 6a, reference compound]
2. COC(=O)[C@H]1[C@@H](c2ccc3ccccc3c2)C[C@@H]2[C@@H](O)C[C@H]1N2C (relative stereo) [Compound 14b]

result:
867
34.2

----------
Target: serotonin transporter (Macaca mulatta, UniProt Q9MYX0)
Construct: The serotonin transporter was assayed in caudate-putamen membranes using conditions similar to those for the dopamine transporter; from tissue; host or cells: caudate-putamen membranes of cynomolgus or rhesus monkey brain
Assay: Serotonin transporter assay: inhibition of {3H}citalopram binding in caudate-putamen membranes
Parameters: species or system rhesus or cynomolgus monkey
Details: IC50 (nM) SERT, monkey caudate-putamen, mean of 2 or more independent experiments in triplicate
valueKind: IC50 (nM)
Numbers only, in nM.

Some solved cases for reference:
molecule	readoutNumber
COC(=O)C1=C(c2ccc(Cl)c(Cl)c2)C[C@@H]2[C@@H](O)C[C@H]1N2C (racemic)	3320
COC(=O)[C@H]1[C@@H](c2ccccc2)C[C@@H]2[C@@H](O)C[C@H]1N2C (relative stereo) [Compound 14d]	88000
COC(=O)[C@H]1[C@@H](c2ccc(Cl)c(Cl)c2)C[C@@H]2CC(=O)[C@H]1N2C (relative stereo)	290
COC(=O)[C@@H]1[C@H]2C[C@H](O)[C@@H](C[C@H]1c1ccc3ccccc3c1)N2C (relative stereo) [Compound 17b]	180

Now consider a different molecule.
query: Query the reported IC50 for serotonin transporter (Macaca mulatta, UniProt Q9MYX0); item: COC(=O)C1C(c2ccc(Cl)c(Cl)c2)CC2C[C@@H](O)C1N2C (some centres unmarked)
result: 533

----------
Target: serotonin transporter (Macaca mulatta)
Construct: The serotonin transporter was assayed in caudate-putamen membranes using conditions similar to those for the dopamine transporter; from tissue; host or cells: caudate-putamen membranes of cynomolgus or rhesus monkey brain
Test: Serotonin transporter assay: inhibition of {3H}citalopram binding in caudate-putamen membranes
Set-up: species or system rhesus or cynomolgus monkey
Conditions: IC50 (nM) SERT, monkey caudate-putamen, mean of 2 or more independent experiments in triplicate
valueKind: IC50 (nM)
Numbers only, in nM.

Some solved cases for reference:
compound	readoutUnits	readoutNumber
CCC(=O)[C@@H]1[C@H]2[C@H](O)C[C@@H](C[C@H]1c1ccc(Cl)c(Cl)c1)N2C (relative stereo)	nM	2520
COC(=O)[C@@H]1[C@H]2C[C@@H](O)[C@@H](C[C@H]1c1ccc(Cl)c(Cl)c1)N2C (relative stereo) [Compound 30a]	nM	10700
COC(=O)C1=C(c2ccccc2)C[C@@H]2CC[C@H]1N2C (relative stereo) [Compound 6d, reference compound]	nM	28600
COC(=O)C1C(c2ccc(Cl)c(Cl)c2)CC2CC(O)C1N2C (single isomer, unassigned) [(1S)-15a]	nM	15

Dear colleague, could you please provide IC50 for the compounds listed below?
1. COC(=O)C1=C(c2ccc3ccccc3c2)CC2CCC1N2C (stereo not shown) [Compound 6b, reference compound]
2. COC(=O)C1C(c2ccc(Cl)c(Cl)c2)CC2CC(O)C1N2C (single isomer, unassigned) [(1R)-15a]

result:
1. 109
2. 139

----------
Molecular target: dopamine transporter (Macaca fascicularis, UniProt Q9GJT6)
Construct: The caudate-putamen was dissected from coronal slices and yielded 1.4±0.4 g tissue; Membranes were prepared as described previously; from tissue; host or cells: caudate-putamen membranes of cynomolgus or rhesus monkey brain
Sequence (Q9GJT6 whole entry): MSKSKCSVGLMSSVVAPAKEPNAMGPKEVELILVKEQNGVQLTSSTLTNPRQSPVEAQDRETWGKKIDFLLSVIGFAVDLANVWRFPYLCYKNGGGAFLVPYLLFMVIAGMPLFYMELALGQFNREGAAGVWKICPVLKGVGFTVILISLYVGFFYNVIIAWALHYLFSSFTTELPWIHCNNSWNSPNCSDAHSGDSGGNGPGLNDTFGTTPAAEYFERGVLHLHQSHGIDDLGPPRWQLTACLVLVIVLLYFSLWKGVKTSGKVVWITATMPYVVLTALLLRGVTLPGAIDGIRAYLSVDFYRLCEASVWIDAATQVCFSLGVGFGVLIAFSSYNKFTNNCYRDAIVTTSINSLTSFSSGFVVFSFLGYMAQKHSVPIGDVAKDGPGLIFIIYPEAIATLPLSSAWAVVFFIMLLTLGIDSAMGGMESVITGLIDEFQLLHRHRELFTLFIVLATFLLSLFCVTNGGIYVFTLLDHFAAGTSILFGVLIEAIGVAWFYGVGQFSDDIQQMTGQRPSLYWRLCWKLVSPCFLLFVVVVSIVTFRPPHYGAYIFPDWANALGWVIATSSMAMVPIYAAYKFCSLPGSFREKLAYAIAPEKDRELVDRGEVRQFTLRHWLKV
Test: Dopamine transporter assay: inhibition of {3H}WIN 35,428 binding in caudate-putamen membranes
Design: species or system rhesus or cynomolgus monkey
Details: inhibition of {3H}WIN 35,428 binding, monkey caudate-putamen; mean of 2 or more independent experiments in triplicate; read-out: IC50 (nM) DAT
valueKind: IC50 (nM)
One number for each entry, in nM.

query: If you can, please state the reported IC50 value of COC(=O)[C@@H]1[C@H]2CC[C@@H](C[C@H]1c1ccc(Cl)c(Cl)c1)N2C [Compound 16a, reference compound] .
result: 0.38

----------
Target: dopamine transporter (Macaca fascicularis)
Construct: The caudate-putamen was dissected from coronal slices and yielded 1.4±0.4 g tissue; Membranes were prepared as described previously; from tissue; host or cells: caudate-putamen membranes of cynomolgus or rhesus monkey brain
Assay: Dopamine transporter assay: inhibition of {3H}WIN 35,428 binding in caudate-putamen membranes
Design: species or system rhesus or cynomolgus monkey
Settings: selectivity ratio IC50 SERT / IC50 DAT
Class Y: SERT/DAT at least 4. Class N: SERT/DAT below 4.

compound	experimentalTarget	assignedClass
COC(=O)[C@H]1[C@@H](c2ccc(Cl)c(Cl)c2)C[C@@H]2[C@@H](O)C[C@H]1N2C (relative stereo) [Compound 14a]	dopamine transporter (Macaca fascicularis)	Y
COC(=O)[C@@H]1[C@H]2[C@H](O)C[C@@H](C[C@H]1c1ccc(F)cc1)N2C (relative stereo) [Compound 18c]	dopamine transporter (Macaca fascicularis)	Y
COC(=O)C1=C(c2ccc(F)cc2)CC2CCC1N2C (stereo not drawn) [Compound 6c, reference compound]	dopamine transporter (Macaca fascicularis)	Y

query: Assess whether reported SERT/DAT for COC(=O)C1=C(c2ccccc2)C[C@@H]2C[C@@H](O)[C@H]1N2C (racemic) sits at 4 or higher.
result: N

query: Note, next up: COC(=O)C1C(c2ccc(Cl)c(Cl)c2)CC2CC(O)C1N2C (single isomer, unassigned) [(1S)-15a]
result: Y

query: Note, next up: COC(=O)C1=C(c2ccccc2)CC2C(O)CC1N2C (stereo not drawn)
result: N

query: Note, next up: COC(=O)[C@H]1[C@@H](c2ccc(F)cc2)C[C@@H]2CC[C@H]1N2C [Compound 13c, reference compound]
result: Y

query: Note, next up: COC(=O)C1=C(c2ccc3ccccc3c2)CC2CC(O)C1N2C (stereo not drawn)
result: Y

query: Note, next up: COC(=O)C1=C(c2ccc3ccccc3c2)CC2C(O)CC1N2C (stereo not drawn)
result: N

query: Note, next up: COC(=O)C1=C(c2ccc(Cl)c(Cl)c2)CC2CCC1N2C (stereo not drawn) [Compound 6a, reference compound]
result: Y

query: Note, next up: COC(=O)C1=C(c2ccc3ccccc3c2)CC2CCC1N2C (stereo not drawn) [Compound 6b, reference compound]
result: Y

query: Note, next up: COC(=O)C1=C(c2ccc(F)cc2)C[C@@H]2C[C@@H](O)[C@H]1N2C (racemic)
result: N

query: Note, next up: COC(=O)C1C(c2ccc3ccccc3c2)CC2CCC1N2C (stereo not drawn) [Compound 13b, reference compound]
result: Y

query: Note, next up: COC(=O)[C@@H]1[C@H]2CC[C@@H](C[C@H]1c1ccc(Cl)c(Cl)c1)N2C [Compound 16a, reference compound]
result: Y

----------
valueKind: melting point

Some solved cases for reference:
molecule	result
COC(=O)[C@@H]1[C@H]2[C@@H](O)C[C@@H](C[C@H]1c1ccc(Cl)c(Cl)c1)N2C (relative stereo) [Compound 30b]	121 to 123 °C
COC(=O)C1=C(c2ccc(Cl)c(Cl)c2)C[C@@H]2C[C@@H](O)[C@H]1N2C (racemic)	130.4 to 132.4 °C
COC(=O)[C@H]1[C@@H](c2ccc(Cl)c(Cl)c2)C[C@@H]2[C@@H](O)C[C@H]1N2C (relative stereo) [Compound 14a]	93.5 to 95.5 °C
COC(=O)C1C(c2ccc(F)cc2)CC2C(O)CC1N2C (stereo not drawn) [Compound 14c]	162 to 164 °C
COC(=O)[C@@H]1[C@H]2[C@H](O)C[C@@H](C[C@H]1OC(c1ccc(F)cc1)c1ccc(F)cc1)N2C (relative stereo) [Compound 32b]	150 to 152 °C
COC(=O)C1=C(c2ccccc2)C[C@@H]2C[C@@H](O)[C@H]1N2C (racemic)	113 to 114 °C

Dear colleague, could you please provide melting point for the molecules listed below?
1. COC(=O)[C@@H]1[C@H]2[C@H](O)C[C@@H](C[C@@H]1c1ccc(F)cc1)N2C (racemic) [Compound 15c]
2. COC(=O)C1=C(c2ccccc2)CC2C(O)CC1N2C (stereo not drawn)

result:
1: 179.3 to 181.3 °C; 2: 165 to 167 °C

Dear colleague, could you please provide melting point for the molecules listed below?
1. COC(=O)[C@@H]1[C@H]2[C@H](O)C[C@@H](C[C@H]1c1ccc(F)cc1)N2C (relative stereo) [Compound 18c]
2. CCC(=O)[C@@H]1[C@H]2[C@H](O)C[C@@H](C[C@@H]1c1ccc(Cl)c(Cl)c1)N2C (relative stereo)

result:
1. 177.2 to 179 °C
2. 195.5 to 196.5 °C

Dear colleague, could you please provide melting point for the molecules listed below?
1. COC(=O)[C@H]1[C@@H](c2ccc3ccccc3c2)C[C@@H]2[C@@H](O)C[C@H]1N2C (relative stereo) [Compound 14b]
2. COC(=O)[C@@H]1[C@H]2C[C@H](O)[C@@H](C[C@H]1c1ccc(Cl)c(Cl)c1)N2C (relative stereo) [Compound 17a]
3. COC(=O)[C@@H]1[C@H]2C[C@H](O)[C@@H](C[C@H]1c1ccccc1)N2C (relative stereo) [Compound 17d]
4. COC(=O)C1=C(c2ccc3ccccc3c2)CC2C(O)CC1N2C (stereo not drawn)
5. COC(=O)[C@@H]1[C@H]2C(=O)C[C@@H](C[C@H]1c1ccc(Cl)c(Cl)c1)N2C (relative stereo)
6. COC(=O)[C@@H]1[C@H]2C[C@@H](O)[C@@H](C[C@H]1c1ccc(Cl)c(Cl)c1)N2C (relative stereo) [Compound 30a]

result:
1. 84 to 86 °C
2. 129.1 to 131.1 °C
3. 138 to 140 °C
4. 165 to 167 °C
5. 163.5 to 164.5 °C
6. 161.2 to 162.2 °C

Dear colleague, could you please provide melting point for the molecules listed below?
1. COC(=O)[C@@H]1[C@H]2[C@H](O)C[C@@H](C[C@@H]1c1ccc3ccccc3c1)N2C (relative stereo) [Compound 15b]
2. COC(=O)C1=C(c2ccc(F)cc2)CC2C(O)CC1N2C (stereo not drawn)

result:
1: 207.5 to 208.5 °C; 2: 124 to 126 °C
